target: DNA topoisomerase 2-alpha (Homo sapiens)
Sequence (P11388 whole entry): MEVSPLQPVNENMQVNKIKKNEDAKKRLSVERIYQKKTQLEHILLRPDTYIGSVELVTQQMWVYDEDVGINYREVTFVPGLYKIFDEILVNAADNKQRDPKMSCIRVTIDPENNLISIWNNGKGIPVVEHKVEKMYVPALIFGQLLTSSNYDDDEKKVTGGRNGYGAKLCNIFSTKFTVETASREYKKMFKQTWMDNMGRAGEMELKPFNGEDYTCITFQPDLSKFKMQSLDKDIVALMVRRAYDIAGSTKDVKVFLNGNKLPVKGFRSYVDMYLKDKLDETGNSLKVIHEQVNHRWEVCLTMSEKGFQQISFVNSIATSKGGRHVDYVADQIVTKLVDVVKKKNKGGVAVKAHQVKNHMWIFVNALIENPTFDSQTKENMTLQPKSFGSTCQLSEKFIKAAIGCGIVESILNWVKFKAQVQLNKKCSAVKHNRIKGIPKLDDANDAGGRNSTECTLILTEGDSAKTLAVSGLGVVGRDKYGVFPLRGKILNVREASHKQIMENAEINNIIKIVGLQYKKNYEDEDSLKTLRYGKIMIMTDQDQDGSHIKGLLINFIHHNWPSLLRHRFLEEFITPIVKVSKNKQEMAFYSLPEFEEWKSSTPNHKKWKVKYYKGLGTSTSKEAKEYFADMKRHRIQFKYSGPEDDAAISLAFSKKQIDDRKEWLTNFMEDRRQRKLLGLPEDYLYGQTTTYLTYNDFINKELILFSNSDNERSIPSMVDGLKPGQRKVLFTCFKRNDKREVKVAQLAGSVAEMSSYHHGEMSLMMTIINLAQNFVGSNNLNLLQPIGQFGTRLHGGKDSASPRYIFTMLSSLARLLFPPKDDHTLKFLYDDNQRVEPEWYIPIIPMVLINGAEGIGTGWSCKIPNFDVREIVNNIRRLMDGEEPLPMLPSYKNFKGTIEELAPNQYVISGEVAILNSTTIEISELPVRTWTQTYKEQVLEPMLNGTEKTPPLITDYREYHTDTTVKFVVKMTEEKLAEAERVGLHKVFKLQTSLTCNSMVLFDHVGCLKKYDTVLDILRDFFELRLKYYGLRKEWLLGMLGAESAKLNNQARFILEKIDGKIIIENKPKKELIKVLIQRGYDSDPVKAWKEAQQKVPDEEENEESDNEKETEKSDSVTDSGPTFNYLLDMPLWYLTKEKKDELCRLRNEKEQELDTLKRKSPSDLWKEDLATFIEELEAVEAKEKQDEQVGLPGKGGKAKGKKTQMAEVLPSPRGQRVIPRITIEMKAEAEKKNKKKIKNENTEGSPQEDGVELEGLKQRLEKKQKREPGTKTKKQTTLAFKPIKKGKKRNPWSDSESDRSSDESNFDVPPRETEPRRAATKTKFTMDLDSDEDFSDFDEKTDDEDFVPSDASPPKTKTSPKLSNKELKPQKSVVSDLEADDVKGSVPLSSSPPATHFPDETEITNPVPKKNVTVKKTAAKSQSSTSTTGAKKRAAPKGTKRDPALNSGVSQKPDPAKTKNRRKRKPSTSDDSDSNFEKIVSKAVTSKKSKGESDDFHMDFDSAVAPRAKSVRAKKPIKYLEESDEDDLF
endpointName: Kd (µM)
Numbers only, in µM.

### Prompt Specify reported Kd for the molecule shown: `CN(C)C(=S)N/N=C/c1ccc2ccccc2n1`
### Response 18.3

* * *

system: SMMC-7721; experiment: Antiproliferative activity against human SMMC7721 cells after 72 hrs by sulforhodamine B assay; type: functional, cell-based; conditions: SMMC-7721, 72 h
endpointName: pIC50
Numbers only, as −log10 of the molar value.

### Prompt Specify reported pIC50 for the molecule shown: `CN(C)C(=S)N/N=C/c1ccc2ccccc2n1`
### Response 6.62

* * *

tested on: NCI-H23; assay: Antiproliferative activity against human NCI-H23 cells after 72 hrs by sulforhodamine B assay; type: functional, cell-based; conditions: NCI-H23, 72 h
endpointName: IC50 (nM)
Answers are plain numbers, in nM.

### Prompt Quote IC50 with test system NCI-H23 for `CN(C)C(=S)N/N=C/c1ccc2ccccc2n1`
### Response 80
